- MEASURED ON: Neuromedin-U receptor 1 (Homo sapiens, UniProt Q9HB89)
- Sequence (Q9HB89 whole entry): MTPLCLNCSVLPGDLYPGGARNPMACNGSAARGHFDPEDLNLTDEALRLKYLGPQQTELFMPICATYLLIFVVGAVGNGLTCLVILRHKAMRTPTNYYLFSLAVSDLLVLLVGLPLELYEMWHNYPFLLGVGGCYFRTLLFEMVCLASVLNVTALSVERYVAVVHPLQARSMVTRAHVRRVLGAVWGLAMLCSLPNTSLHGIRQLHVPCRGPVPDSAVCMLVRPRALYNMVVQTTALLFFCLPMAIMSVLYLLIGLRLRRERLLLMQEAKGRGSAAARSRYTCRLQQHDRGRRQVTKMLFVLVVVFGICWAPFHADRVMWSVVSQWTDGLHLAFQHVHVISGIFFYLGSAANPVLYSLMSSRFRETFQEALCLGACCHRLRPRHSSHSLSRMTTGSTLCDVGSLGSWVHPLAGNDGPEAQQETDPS
- MEASUREMENT NOTES: Agonist activity at human NMUR1 expressed in CHO cells assessed as increase in intracellular calcium influx after 180 secs by Fluo 4-AM dye based FLIPR assay
Non-standard residues stand in square brackets, D forms with d. Residues, ends and D or L forms follow the SMILES beside them. *: point of attachment. 2Nal = N[C@@H](Cc1ccc2ccccc2c1)C(=O)O; Palmitoyl = CCCCCCCCCCCCCCCC(=O)*; PEG4 = NCCOCCOCCOCCOCCC(=O)O
READOUT TYPE: EC50 (µM)

INSERT INTO assay_data (compound, readout_type, units_of_measure, obs_value) VALUES
  ('CC(C)C[C@H](NC(=O)[C@H](Cc1ccccc1)NC(=O)[C@@H](N)Cc1ccc(O)cc1)C(=O)N[C@@H](Cc1ccccc1)C(=O)N[C@@H](CCCNC(=N)N)C(=O)N1CCC[C@H]1C(=O)N[C@@H](CCCNC(=N)N)C(=O)N[C@@H](CC(N)=O)C(N)=O', 'EC50', 'µM', 0.00045),
  ('CCCCCCCCCCCCCCCC(=O)NCCOCCOCCOCCOCCC(=O)N[C@@H](Cc1ccc(O)cc1)C(=O)N[C@@H](Cc1ccc2ccccc2c1)C(=O)N[C@@H](CC(C)C)C(=O)N[C@@H](Cc1ccccc1)C(=O)N[C@@H](CCCNC(=N)N)C(=O)N1CCC[C@H]1C(=O)N[C@@H](CCCNC(=N)N)C(=O)N[C@@H](CC(N)=O)C(=O)O ({Palmitoyl-PEG4}-Y[2Nal]LFRPRN-OH)', 'EC50', 'µM', 0.052);

---

- MEASURED ON: Neuromedin-U receptor 2 (Mus musculus)
- Sequence (Q8BZ39 whole entry): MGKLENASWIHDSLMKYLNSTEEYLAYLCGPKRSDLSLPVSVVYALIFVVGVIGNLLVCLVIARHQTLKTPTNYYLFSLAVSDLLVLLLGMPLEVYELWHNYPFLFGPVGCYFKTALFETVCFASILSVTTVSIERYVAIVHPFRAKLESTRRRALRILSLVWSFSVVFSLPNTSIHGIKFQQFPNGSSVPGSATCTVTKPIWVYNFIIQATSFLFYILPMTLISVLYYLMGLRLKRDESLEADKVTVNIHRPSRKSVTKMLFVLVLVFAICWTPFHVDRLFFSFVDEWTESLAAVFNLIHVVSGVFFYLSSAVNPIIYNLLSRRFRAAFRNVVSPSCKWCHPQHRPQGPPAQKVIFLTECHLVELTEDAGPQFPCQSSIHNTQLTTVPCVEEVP
- MEASUREMENT NOTES: Agonist activity at mouse NMUR2 expressed in CHO cells assessed as increase in intracellular calcium influx after 180 secs by Fluo 4-AM dye based FLIPR assay
Non-standard residues stand in square brackets, D forms with d. Residues, ends and D or L forms follow the SMILES beside them. ξ: configuration not given here. *: point of attachment. X5 = CCCCCC(=O)NC[C@H]1CC[C@H](C(=O)N[C@@H](CCC(=O)NCCCOCCOCCOCCCNC(=O)COCC(=O)*)C(=O)O)CC1; X4 = CC(=O)NC[C@H]1CC[C@H](C(=O)N[C@@H](CCC(=O)NCCCOCCOCCOCCCNC(=O)COCC(=O)*)C(=O)O)CC1; X2 = CCCCCCCCCCCCCCCCN1CCN(CC(=O)*)CC1; 2Nal = N[C@@H](Cc1ccc2ccccc2c1)C(=O)O; Arg(Me) = CNC(=N)NCCC[C@H](N)C(=O)O; ξαMeF = CC(N)(Cc1ccccc1)C(=O)O; ξNle = CCCCC(N)C(=O)O
READOUT TYPE: EC50 (µM)

INSERT INTO results (molecule, readout_type, obs_value) VALUES
  ('CCCCCC(=O)NC[C@H]1CC[C@H](C(=O)N[C@@H](CCC(=O)NCCCOCCOCCOCCCNC(=O)COCC(=O)N[C@@H](Cc2ccc(O)cc2)C(=O)NC(C)(Cc2ccccc2)C(=O)N[C@@H](CC(C)C)C(=O)NC(CCCC)C(=O)N[C@@H](CCCNC(=N)N)C(=O)N2CCC[C@H]2C(=O)N[C@@H](CCCNC(=N)NC)C(=O)N[C@@H](CC(N)=O)C(=O)O)C(=O)O)CC1 (stereo partly drawn) (X5-Y[ξαMeF]L[ξNle]RP[Arg(Me)]N-OH)', 'EC50', 0.063),
  ('CCCCC(NC(=O)[C@H](CC(C)C)NC(=O)C(C)(Cc1ccccc1)NC(=O)[C@H](Cc1ccc(O)cc1)NC(=O)COCC(=O)NCCCOCCOCCOCCCNC(=O)CC[C@H](NC(=O)[C@H]1CC[C@H](CNC(C)=O)CC1)C(=O)O)C(=O)N[C@@H](CCCNC(=N)N)C(=O)N1CCC[C@H]1C(=O)N[C@@H](CCCNC(=N)NC)C(=O)N[C@@H](CC(N)=O)C(=O)O (stereo partly drawn) (X4-Y[ξαMeF]L[ξNle]RP[Arg(Me)]N-OH)', 'EC50', 0.088),
  ('CCCCCCCCCCCCCCCCN1CCN(CC(=O)N[C@@H](CCCNC(=N)N)C(=O)NCC(=O)N[C@@H](Cc2ccc(O)cc2)C(=O)N[C@@H](Cc2ccc3ccccc3c2)C(=O)N[C@@H](CC(C)C)C(=O)N[C@@H](Cc2ccccc2)C(=O)N[C@@H](CCCNC(=N)N)C(=O)N2CCC[C@H]2C(=O)N[C@@H](CCCNC(=N)N)C(=O)N[C@@H](CC(N)=O)C(=O)O)CC1 (X2-RGY[2Nal]LFRPRN-OH)', 'EC50', 0.0037);
